meta.source: patent US20250129104A1

System Name: recombinant DYRK1A kinase (Homo sapiens (Human))
Assay Explanation: DYRK1A kinase assay (Ser/Thr 18 peptide Z-lyte FRET assay)
Assay Context: DYRK1A kinase activity; 15 μM ATP, 1 h room temperature; method text calls the value IC50
Measured Quantity: pEC50
Answers are plain numbers, as −log10 of the molar value.

Solved cases below.
CC(C)(F)CNc1ncc2c(-c3ccc4ncnn4c3)c[nH]c2n1 : 8.07
COc1nc(NCC(C)(C)F)nc2[nH]cc(-c3cnc4nc(C)n(CC(F)F)c4c3)c12 : 7.11
C[C@@H](Nc1ncc2c(-c3cc(F)c4nccn4c3)c[nH]c2n1)C(F)(F)F : 8.22
CC(C)(F)CNc1ncc2c(-c3ccn4nccc4c3)c[nH]c2n1 : 8.34
FC(F)(F)CCNc1ncc2c(-c3ccc4ncnn4c3)c[nH]c2n1 : 7.34

List the reported pEC50 of each compound below.
1. CN1CCN(c2cc(Nc3ncc4c(-c5ccn6ncc(-c7cccnc7)c6c5)c[nH]c4n3)ccn2)CC1
2. CO[C@H]1C[C@@H](Nc2ncc3c(-c4ccn5nccc5c4)c[nH]c3n2)C1
3. COC[C@@H](C)Nc1nc(OC)c2c(-c3ccc4nccn4c3)c[nH]c2n1
4. CN1CCC(Nc2ncc3c(-c4ccc5ncccc5c4)c[nH]c3n2)CC1
5. C[C@]1(O)CC[C@@H](Nc2ncc3c(-c4cc(F)c5nccn5c4)c[nH]c3n2)CC1
6. COc1nc(CC(C)C)nc2[nH]cc(-c3ccn4nccc4c3)c12

(A)
1: 7.89; 2: 8.59; 3: 7.13; 4: 8.51; 5: 8.66; 6: 8.04

List the reported pEC50 of each compound below.
1. FC(F)(F)CNc1ncc2c(-c3ccc4nccn4n3)c[nH]c2n1
2. CC(F)(F)CNc1ncc2c(-c3ccc4ncnn4c3)c[nH]c2n1
3. Fc1cc(-c2c[nH]c3nc(NCC4CC4)ncc23)cn2ccnc12
4. CC[C@H](C)Nc1ncc2c(-c3cc(F)c4nccn4c3)c[nH]c2n1
5. Cc1nc2ncc(-c3c[nH]c4nc(C5CCC5)ncc34)cc2n1C(C)C
6. OCc1cnc2c(F)cc(-c3c[nH]c4nc(C5CC5)ncc34)cn12
7. CO[C@H]1CC[C@@H](Nc2ncc3c(-c4ccc5nccnc5c4)c[nH]c3n2)CC1

(A)
1. 8.02
2. 7.93
3. 7.56
4. 7.71
5. 7.60
6. 7.38
7. 8.28

* * *

System Name: recombinant DYRK1A kinase (Homo sapiens (Human), UniProt Q13627)
Assay Explanation: DYRK1A kinase assay (Ser/Thr 18 peptide Z-lyte FRET assay)
Assay Context: DYRK1A kinase activity; 15 μM ATP, 1 h room temperature; method text calls the value IC50
Please provide measured log10(EC50) for the entries that follow.
log10 EC50, nM

Solved cases below.
CN1CCC(Nc2ncc3c(-c4ccn5ncc(C(=O)Nc6cccnc6)c5c4)c[nH]c3n2)CC1 : 0.57
CC(C)(F)CNc1ncc2c(-c3ccn4ncc(C5CC5)c4n3)c[nH]c2n1 : 0.71

List the reported log10(EC50) of each molecule below.
1. CN1CCC(c2cnc3c(F)cc(-c4c[nH]c5nc(C6CC6)ncc45)cn23)CC1
2. [2H]C([2H])([2H])O[C@H]1CC[C@@H](Nc2ncc3c(-c4ccc5nccn5n4)c[nH]c3n2)CC1
3. COc1nc(NC2CCN(C)CC2)nc2[nH]cc(-c3ccc4nnn(C)c4c3)c12

(A)
1: 2.24; 2: 0.18; 3: 0.97

(Q) Which value of log10(EC50) has been reported for CC(C)Cc1ncc2c(-c3ccc4nnn(C)c4c3)c[nH]c2n1 in the records?
(A) 1.82
